System: HCT-15 colon
EXPERIMENT: NCI-60 one-dose screen, 48 h (100 = growth as untreated, 0 = no growth, -100 = all killed)
CONDITION_SUMMARY: 10 µM unless noted
Compounds without any hit were thinned out: in the full panel of roughly 83,000, 20% have a hit.
Reported growth values for the following compounds.
Record the value in %, omitting the unit from your answer.

Some compounds with known growth results, for comparison:
CC/C(=C(\c1ccc(OCCN2CCOCC2)cc1)c1ccc(OC(=O)Cc2ccccc2)cc1)c1ccc(Cl)cc1 :: 112
O=C(Cc1ccccc1)c1ccccc1 :: 102
COc1cc2c(cc1OC)[C@@H]1C(=O)c3ccc4c(c3O[C@@H]1CO2)C[C@H](C(C)C)O4 :: 79.1
CNC(=O)O/N=C(\SC)C(=O)N(C)C :: 105
CC[PH+](CC)CC.O=COC1OC([S-])C(OC=O)C(OC=O)C1OC=O.[Au+] (stereo unspecified) :: -74.9

Please find the next compound below.
# lookup: growth of `O=S1(=O)OCCO1`
99
